Data provenance is patent US20240034800A1.

system: T1, Mouse HVEM-Fc (mouse, UniProt Q80WM9)
T1 construct: part fused to Fc; also called mouse HVEM-mFc; mHVEM
T1 sequence (fusion chain, looked up): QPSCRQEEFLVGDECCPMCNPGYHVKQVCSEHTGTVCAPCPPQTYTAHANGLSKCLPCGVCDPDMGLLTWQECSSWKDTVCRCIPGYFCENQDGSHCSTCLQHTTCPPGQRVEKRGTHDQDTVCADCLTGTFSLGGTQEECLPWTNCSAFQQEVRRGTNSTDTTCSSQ
assay: ELISA, coated mouse HVEM-mFc 0.2 ug/ml, anti-human IgG4-HRP, SigmaPlot fit
Each record here notes measured binding affinity (ELISA fit).
recordedEndpoint: binding affinity (ELISA fit) (pM)

• HVEM040 (antibody, human IgG4 S228P, kappa, V domains shown) VH: EVQLLESGGGLVQPGGSLRLSCAASGFTFSNYGMSWVRQAPGKGLEWVSSIYYSGDTYYNPSLESRFTISRDNSKNTLYLQMNSLRAEDTAVYYCASGSNAFDIWGQGTLVTVSS VL: EIVLTQSPGTLSLSPGERATLSCRASRSVGKYLAWYQQKPGQAPRLLIYGASSRTTGIPDRFSGSGSGTDFTLTISRLEPEDFAVYYCQQYGSSPPVTFGQGTKVEIKR = 126
• HVEM001 (antibody, human IgG4 S228P, kappa, V domains shown) VH: EVQLLESGGGLVQPGGSLRLSCAASGFTFSNYAMHWVRQAPGKGLEWVSNINPSGGSTTYAQEFEDRFTISRDNSKNTLYLQMNSLRAEDTAVYYCATRSRQDSWGYFDIWGQGTLVTVSS VL: EIVLTQSPGTLSLSPGERATLSCRASRSISNYLAWYQQKPGQAPRLLIYGASTRATGIPDRFSGSGSGTDFTLTISRLEPEDFAVYYCQQYGSSPPLTFGQGTKVEIKR = 151
• HVEM018 (antibody, human IgG4 S228P, kappa, V domains shown) VH: EVQLLESGGGLVQPGGSLRLSCAASGFTFSSYSMNWVRQAPGKGLEWVSAISGSGGGTYSADSVKGRFTISRDNSKNTLYLQMNSLRAEDTAVYYCARGKAYGYFDYWGQGTLVTVSS VL: EIVLTQSPGTLSLSPGERATLSCRASRSVGKYLAWYQQKPGQAPRLLIYAASTLQSGIPDRFSGSGSGTDFTLTISRLEPEDFAVYYCQQYGSSPPVIFGQGTKVEIKR = 158
• HVEM011 (antibody, human IgG4 S228P, kappa, V domains shown, Full-size human IgG4 (S228P) kappa antibody made in ExpiCHO-S; human IL-2 signal peptide is cleaved and left out; also called HVEM011 antibody) VH: EVQLLESGGGLVQPGGSLRLSCAASEFTFSSYAMHWVRQAPGKGLEWVSSITSASSYIDYADSVKGRFTISRDNSKNTLYLQMNSLRAEDTAVYYCARGTRGLFDHWGQGTLVTVSS VL: EIVLTQSPGTLSLSPGERATLSCRASRSVGKYLAWYQQKPGQAPRLLIYLGSNRASGIPDRFSGSGSGTDFTLTISRLEPEDFAVYYCQQYGSSPPITFGQGTKVEIKR = 219
• HVEM030 (antibody, human IgG4 S228P, kappa, V domains shown) VH: EVQLLESGGGLVQPGGSLRLSCAASGFTFSGYYWTWVRQAPGKGLEWVSTISASGDSTYYADSVKGRFTISRDNSKNTLYLQMNSLRAEDTAVYYCAHDRTFGYFDYWGQGTLVTVSS VL: EIVLTQSPGTLSLSPGERATLSCRASRSVGKYLAWYQQKPGQAPRLLIYAASSLQSGIPDRFSGSGSGTDFTLTISRLEPEDFAVYYCQQYGSSPPITFGQGTKVEIKR = 16.6
